assay: soluble fraction after stress (log2 fold change); higher = more stays soluble; pooled small domains, quantitative proteomics; details: stress: 75 degC;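 also: 20 min heating vs room temperature control held 20 min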
Output Fulfilled for soluble fraction (log2) not less than -0.3; output Not fulfilled otherwise.

Illustrative cases are given below, each with its answer.
{"columns": ["query-sequence", "label"],
 "data": [
  ["HMGEVEVPDLVGIEAIQAKTLLFNSDFLIKEFYDYDPTQPIGVVIRQAPEAGTTQTIGDSVTITINRA", "Not fulfilled"],
  ["HMEPELSVDMKPLDGLLLAIKKELQAAQMYTRLARASADAEQKMVFEQLANMEKGHKARLEDIYT", "Fulfilled"],
  ["HMYMKGKVKWFDSKKGYGFITSENGKEIFVHFSGIAAKGFKSLNEGQTVEFEVANGAKGEQAVNVTV", "Not fulfilled"],
  ["HMKTPETSEYVVQAGDSLRRILTERYGAKEQDLPYLYRQFRLLNPKVSSLDNIHAGTKVRIPLVASVL", "Fulfilled"],
  ["HMIISMKKTATKEQIAHVRELIEGMGYKAHMSVGAERVIFGAIGDERGKERLVSLEAQPGVEKVIPIL", "Not fulfilled"]
]}

Decide: soluble fraction (log2) of HMRKTLASTAYDSIKAGIVSGEINNNLLLSENTLAKILNMSRTPIREAIKRLEAESYLKSVDGVGLIVQE >= -0.3?
Not fulfilled

Decide: is the reported value of soluble fraction (log2) for HMKQAVESAEAIFEEIARIKKLSLVKSEAEEIARKTGLQKFTIASQLLKNQHAYEMDESEIASLWDKKI equal to or greater than -0.3?
Fulfilled

Answer whether soluble fraction (log2) of HMETINERVNSIIEREGHTVATFAKKIGVPWTTIKNIVSGRNAPSYDIMVKIINAVDWVDANYLVMG is greater than or equal to -0.3.
Not fulfilled

---

In this section we review reported soluble fraction (log2) values for a set of sequences.
assay: soluble fraction after stress (log2 fold change); higher = more stays soluble; pooled small domains, quantitative proteomics; conditions: stress: 75 degC
# respond with the number and nothing more

{"columns": ["query-sequence", "obs-value"],
 "data": [
  ["HMGLWWTEAERELVKTTIEQLYKDTNIAEPVDSKNLRASIPALKAMRTGLSAENQARVDTLLGALQV", -0.462],
  ["HMRYQIAEARKLRDITQAELAEKMGTTQQTIQRYETNQVNIRMDKMIEMSEILNVSLAYLLGMSSSPEL", -1.78],
  ["HMSTSFQVQVSVLDLRIRKEPTVKGQEVGKISKGIHTITETRSADGYTWGKLESGQGWIALEFTTKLD", -3.72],
  ["HMWNPVLVVRGDFPKDLATTLLKMIFAQKEALNPHILFQNLLRTDNITFRESYPYHSASKTMFRF", -0.276],
  ["HMAPVVAILTRQLPLPQAQQLAGQTALVRVVKGGPGNEAELEFAGQNIQVKLPPGRQLTAGEMVTVAFALS", -0.762]
]}

# soluble fraction (log2) of HMGMTAPIPGVVLKVSVLPGQKVERGDELLTIEAMKMFNVMRSPSSGTIATVHIKDGDRVVQGQPLVTFA = -0.555

// sample HMGASVGEVESVKTASEIYTAAAGKIVAVNDAVAKDPSLVNSDPYGNGWLVKLEIADLSAINA , its soluble fraction (log2) was 0.0161

The sequence listed as HMHLPDNAVSIISELKMTPEEVLELIGKLPHDFLFLPYSQRKKIIVDLIPNKDYKLLMSLIKKFML shows soluble fraction (log2) equal to -1.62

Entry under test: HMRRSKQERQQAIKTLISNEQIQRQEDLVRKLNEAGWEVTQATISRDITEMQLVKVPLPTGGFAYAVM . Its soluble fraction (log2) was -0.0517

In plain terms, HMARKTIFHSLLGELEQRIGRLPAGTILPAEQALADEYGVSKPTLRRALAELAEHGLITKENGIGSVVI has a documented soluble fraction (log2) of -0.577
